All figures here come from patent US20240383996A1.

# System: T1, Human OX40 expressed on transfected Jurkat or CHO cells (human, UniProt P43489 29-277)
# T1 construct: also called human OX40/Jurkat; human OX40/CHO
# T1 sequence: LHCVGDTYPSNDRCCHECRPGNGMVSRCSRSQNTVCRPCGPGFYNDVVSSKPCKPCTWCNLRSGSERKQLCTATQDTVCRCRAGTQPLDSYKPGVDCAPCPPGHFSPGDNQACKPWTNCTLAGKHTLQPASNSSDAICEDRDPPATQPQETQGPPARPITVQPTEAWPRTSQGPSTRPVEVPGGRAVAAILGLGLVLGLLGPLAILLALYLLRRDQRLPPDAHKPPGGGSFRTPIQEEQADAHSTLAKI
# Assay text: flow cytometry on human OX40-transfected Jurkat cells, Alexa Fluor488 anti-human IgG Fc, Geo MFI
Readout label: binding result

2D3B VHH-Fc bivalent antibody (antibody, human IgG1, V domains shown, Humanized VHH fused to human IgG1 Fc) VH: EVQLVESGGGLVQPGGSLRLSCAASGPLGSPSIAWFRQAPGKGLEFVSGIAWSTGDTYYADSVKGRFTISRDNSKNTLYLQMNSLRAEDTAVYYCAADTVVHYMVRHDIRDRESYDYWGQGTLVTVSS	binds
4A6B VHH-Fc bivalent antibody (antibody, human IgG1, V domains shown, Humanized VHH fused to human IgG1 Fc) VH: EVQLVESGGGLVQPGGSLRLSCAASGPLGYPLIAWFRQAPGKGLEFVSGIAWSDGDTYYADSVKGRFTISRDNSKNTLYLQMNSLRAEDTAVYYCAADTVVHYMGRHDIRDRSEYDYWGQGTLVTVSS	binds
